Molecular target: PI3Kα (Homo sapiens (Human))
Sequence (P42336 whole entry): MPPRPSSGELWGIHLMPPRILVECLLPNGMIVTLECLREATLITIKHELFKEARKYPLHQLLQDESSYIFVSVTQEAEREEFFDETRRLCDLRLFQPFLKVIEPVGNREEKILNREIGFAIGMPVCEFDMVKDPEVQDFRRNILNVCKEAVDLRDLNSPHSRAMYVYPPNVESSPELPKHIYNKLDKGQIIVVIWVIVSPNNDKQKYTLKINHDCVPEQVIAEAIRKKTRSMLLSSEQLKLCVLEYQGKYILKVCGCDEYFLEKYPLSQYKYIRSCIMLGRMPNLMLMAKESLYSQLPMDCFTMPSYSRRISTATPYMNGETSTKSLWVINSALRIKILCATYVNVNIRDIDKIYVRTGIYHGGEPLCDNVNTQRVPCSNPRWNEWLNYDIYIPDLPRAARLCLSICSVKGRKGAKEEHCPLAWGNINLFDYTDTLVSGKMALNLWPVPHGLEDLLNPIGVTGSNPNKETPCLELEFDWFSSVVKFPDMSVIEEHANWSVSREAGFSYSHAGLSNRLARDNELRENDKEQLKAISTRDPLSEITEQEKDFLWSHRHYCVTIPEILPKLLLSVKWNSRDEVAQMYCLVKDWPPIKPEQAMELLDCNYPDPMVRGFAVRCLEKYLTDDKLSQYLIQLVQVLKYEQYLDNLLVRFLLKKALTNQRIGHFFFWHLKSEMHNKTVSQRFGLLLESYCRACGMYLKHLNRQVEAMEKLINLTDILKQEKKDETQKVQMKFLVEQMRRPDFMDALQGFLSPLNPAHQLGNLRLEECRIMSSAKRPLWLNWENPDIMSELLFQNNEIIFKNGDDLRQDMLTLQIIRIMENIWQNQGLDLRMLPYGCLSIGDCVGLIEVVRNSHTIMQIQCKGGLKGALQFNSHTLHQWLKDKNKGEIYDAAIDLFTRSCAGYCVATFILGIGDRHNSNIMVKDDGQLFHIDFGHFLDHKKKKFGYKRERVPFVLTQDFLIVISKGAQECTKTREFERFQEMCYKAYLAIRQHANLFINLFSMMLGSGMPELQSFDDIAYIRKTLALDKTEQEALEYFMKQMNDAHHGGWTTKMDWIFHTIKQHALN
Sequence (P27986 whole entry partner): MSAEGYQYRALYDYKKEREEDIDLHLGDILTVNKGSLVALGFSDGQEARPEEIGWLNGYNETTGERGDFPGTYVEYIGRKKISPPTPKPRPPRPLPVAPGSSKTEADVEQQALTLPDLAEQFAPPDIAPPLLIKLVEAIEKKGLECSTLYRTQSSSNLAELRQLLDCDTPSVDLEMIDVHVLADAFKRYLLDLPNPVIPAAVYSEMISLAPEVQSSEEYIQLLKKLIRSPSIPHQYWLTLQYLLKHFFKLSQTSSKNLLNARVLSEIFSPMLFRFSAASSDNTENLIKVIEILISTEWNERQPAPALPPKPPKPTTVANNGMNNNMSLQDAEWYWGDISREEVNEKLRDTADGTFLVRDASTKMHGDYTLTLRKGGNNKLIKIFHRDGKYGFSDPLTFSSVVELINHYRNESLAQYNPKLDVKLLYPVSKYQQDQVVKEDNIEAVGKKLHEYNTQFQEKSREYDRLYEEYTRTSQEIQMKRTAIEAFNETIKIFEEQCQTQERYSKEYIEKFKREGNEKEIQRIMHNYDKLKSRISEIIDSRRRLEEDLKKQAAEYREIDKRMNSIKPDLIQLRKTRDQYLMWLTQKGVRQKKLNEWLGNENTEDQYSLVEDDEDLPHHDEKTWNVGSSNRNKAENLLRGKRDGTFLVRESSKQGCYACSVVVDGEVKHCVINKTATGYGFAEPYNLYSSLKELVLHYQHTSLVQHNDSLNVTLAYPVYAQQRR
Assay: PI3Kα enzyme activity inhibition IC50 evaluation assay
Type: biochemical
Details: ratio PI3Kα vs PI3Kδ
Method: PI3Kα, PI3Kδ, PI3Kβ and PI3Kγ Enzyme Activity Inhibition IC50 Evaluation Assay • 1. Buffer preparation: 50 mM HEPES, pH 7.5, 3 mM MgCl2, 1 mM EGTA, 100 mM NaCl, 0.03% CHAPS. • 2. Compound was formulated in 100% DMSO in a concentration gradient, and added to a 384-well plate to a final DMSO concentration of 1%. • 3. […] Read Luminescense with FlexStation, and calculate the inhibition rate as the average of two tests.
MEASURED_PARAMETER: α/δ selectivity

Solved entries:
COMPOUND	EXPERIMENTAL_VALUE
CCN(CC)C1CN(Cc2c(C)sc3c(-c4cnc(OC)c(NS(C)(=O)=O)c4)nc(N4CCOCC4)nc23)C1 [Compound 122]	172
COc1ncc(-c2nc(N3CCOCC3)nc3c(CN4CCC(C)(C)CC4)c(C)sc23)cc1NS(C)(=O)=O [Compound 99]	152
CC(C)(C)N1CCN(Cc2csc3c(-c4cccc5[nH]ccc45)nc(N4CCOCC4)nc23)CC1 [Compound 15]	>294

Exam item: Write α/δ selectivity of COc1ncc(-c2nc(N3CCOCC3)nc3c(CN4CCNCC4)c(C)sc23)cc1NS(C)(=O)=O [Compound 96] ; system used: PI3Kα (Homo sapiens (Human))
Marked response: 64
